system: Mycolicibacterium fortuitum; experiment: Antimycobacterial activity against Mycobacterium fortuitum ATCC 6841 assessed as visible growth inhibition incubated for 16 to 18 hrs; type: functional, organism-based; conditions: time 16-18 hrs
Activity calls are given as the source filed them. No cut-off for these calls is given here.
VALUE TYPE: Activity

Example results:
1. COC(=O)c1cc(-c2cccc(NC(=O)c3ccc(/C=C/C(=O)c4ccc(C)c(F)c4)cc3)c2)on1 = inactive
2. COC(=O)c1cc(-c2cccc(NC(=O)c3ccc(/C=C/C(=O)c4ccc(OC)cc4OC)cc3)c2)on1 = inactive
3. COC(=O)c1cc(-c2cccc(NC(=O)c3ccc(/C=C/C(=O)c4ccc(C)cc4)cc3)c2)on1 = inactive
4. CCCOc1ccc(C(=O)/C=C/c2ccc(C(=O)Nc3cccc(-c4cc(C(=O)OC)no4)c3)cc2)cc1 = inactive
5. COC(=O)c1cc(-c2cccc(NC(=O)c3ccc(/C=C/C(=O)c4ccccc4Br)cc3)c2)on1 = inactive
6. COC(=O)c1cc(-c2cccc(NC(=O)c3ccc(/C=C/C(=O)c4ccc(O)cc4)cc3)c2)on1 = inactive
7. COC(=O)c1cc(-c2cccc(NC(=O)c3ccc(/C=C/C(=O)c4cccnc4)cc3)c2)on1 = inactive
8. COC(=O)c1cc(-c2cccc(NC(=O)c3ccc(/C=C/C(=O)c4cccc(Br)c4)cc3)c2)on1 = inactive

Fill in Activity for each of the 3 compounds listed.
1. COC(=O)c1cc(-c2cccc(NC(=O)c3ccc(/C=C/C(=O)c4cccc(Cl)c4)cc3)c2)on1
2. COC(=O)c1cc(-c2cccc(NC(=O)c3ccc(/C=C/C(=O)c4ccc(F)cc4)cc3)c2)on1
3. COC(=O)c1cc(-c2cccc(NC(=O)c3ccc(/C=C/C(=O)c4cc(F)ccc4F)cc3)c2)on1

Reply:
inactive
inactive
inactive

Fill in Activity for each of the 5 compounds listed.
1. COC(=O)c1cc(-c2cccc(NC(=O)/C=C/c3ccc(Cl)cc3)c2)on1
2. COC(=O)c1cc(-c2cccc(NC(=O)c3ccc(/C=C/C(=O)c4ccccc4)cc3)c2)on1
3. COC(=O)c1cc(-c2cccc(NC(=O)c3ccc(C4OC4C(=O)c4ccc(Cl)cc4)cc3)c2)on1 (configuration not stated)
4. COC(=O)c1cc(-c2ccc(NC(=O)c3ccc(/C=C/C(=O)c4ccc(Cl)cc4)cc3)cc2)on1
5. COC(=O)c1cc(-c2cccc(NC(=O)c3ccc(/C=C/C(=O)c4cccc(OC)c4)cc3)c2)on1

Reply:
1: inactive; 2: inactive; 3: inactive; 4: inactive; 5: inactive

Entry `COC(=O)c1cc(-c2cccc(NC(=O)c3ccc(/C=C/C(=O)c4ccc(Cl)cc4)cc3)c2)on1` : Activity on Mycolicibacterium fortuitum = inactive

###

assay: Selectivity index, ratio of CC50 for African green monkey Vero cells to MIC for Antitubercular activity against Mycobacterium tuberculosis H37Rv; type: toxicity; settings: read-out: Selectivity Index
Task for the reader: assign each of the following compounds its reported selectivity ratio.

Example results:
1) COC(=O)c1cc(-c2cccc(NC(=O)c3ccc(/C=C/C(=O)c4cc(OC)c(OC)c(OC)c4)cc3)c2)on1 = > 50
2) COC(=O)c1cc(-c2cccc(NC(=O)c3ccc(/C=C/C(=O)c4ccc(CC(C)C)cc4)cc3)c2)on1 = > 84
3) COC(=O)c1cc(-c2cccc(NC(=O)c3ccc(C4OC4C(=O)c4ccc(Cl)cc4)cc3)c2)on1 (configuration not stated) = > 5
4) COC(=O)c1cc(-c2cccc(NC(=O)c3ccc(/C=C/C(=O)c4cccc(Br)c4)cc3)c2)on1 = > 25
5) COC(=O)c1cc(-c2cccc(NC(=O)c3ccc(/C=C/C(=O)c4ccc(OC)cc4OC)cc3)c2)on1 = > 200
6) CCOc1ccc(C(=O)/C=C/c2ccc(C(=O)Nc3cccc(-c4cc(C(=O)OC)no4)c3)cc2)cc1 = > 160
7) CCCOc1ccc(C(=O)/C=C/c2ccc(C(=O)Nc3cccc(-c4cc(C(=O)OC)no4)c3)cc2)cc1 = > 320
8) COC(=O)c1cc(-c2cccc(NC(=O)c3ccc(/C=C/C(=O)c4ccc(N5CCOCC5)cc4)cc3)c2)on1 = > 40

Fill in selectivity ratio for each of the 4 compounds listed.
1. CCOC(=O)c1cc(-c2cccc(NC(=O)c3ccc(/C=C/C(=O)c4ccc(Cl)cc4)cc3)c2)on1
2. COC(=O)c1cc(-c2cccc(NC(=O)c3ccc(/C=C/C(=O)c4ccc([N+](=O)[O-])cc4)cc3)c2)on1
3. COC(=O)c1cc(-c2cccc(NC(=O)c3ccc(/C=C/C(=O)c4ccc(OC)cc4)cc3)c2)on1
4. COC(=O)c1cc(-c2cccc(NC(=O)c3ccc(/C=C/C(=O)c4ccccc4Br)cc3)c2)on1

Reply:
1: > 160; 2: > 10; 3: > 2.5; 4: > 40

###

assay: Cytotoxicity against African green monkey vero cells assessed as reduction in cell viability measured after 72 hrs by MTT assay; type: cell-based; details: chlorocebus sabaeus
VALUE TYPE: CC50 at 72 h

1) COC(=O)c1cc(-c2cccc(NC(=O)c3ccc(/C=C/C(=O)c4ccc(Br)cc4)cc3)c2)on1 = > 20 µg/mL
2) COC(=O)c1cc(-c2cccc(NC(=O)c3ccc(/C=C/C(=O)c4cccc(C(F)(F)F)c4)cc3)c2)on1 = > 20 µg/mL
3) COC(=O)c1cc(-c2cccc(NC(=O)c3ccc(/C=C/C(=O)c4ccc(C)c([N+](=O)[O-])c4)cc3)c2)on1 = > 80 µg/mL
4) COC(=O)c1cc(-c2cccc(NC(=O)c3ccc(/C=C/C(=O)c4ccc(F)cc4F)cc3)c2)on1 = > 40 µg/mL
5) COC(=O)c1cc(-c2cccc(NC(=O)c3ccc(/C=C/C(=O)c4ccc(OC)c([N+](=O)[O-])c4)cc3)c2)on1 = > 40 µg/mL
6) COC(=O)c1cc(-c2cccc(NC(=O)c3ccc(/C=C/C(=O)c4ccc(Cl)cc4)cc3)c2)on1 = > 50 µg/mL

Fill in CC50 at 72 h for each of the 8 compounds listed.
1. COC(=O)c1cc(-c2cccc(NC(=O)c3ccc(/C=C/C(=O)c4cccc(Cl)c4)cc3)c2)on1
2. COC(=O)c1cc(-c2cccc(NC(=O)c3ccc(/C=C/C(=O)c4ccc(F)cc4)cc3)c2)on1
3. COC(=O)c1cc(-c2ccc(NC(=O)c3ccc(/C=C/C(=O)c4ccc(Cl)cc4)cc3)cc2)on1
4. COC(=O)c1cc(-c2cccc(NC(=O)c3ccc(/C=C/C(=O)c4ccc(OC)c(OC)c4)cc3)c2)on1
5. CCOC(=O)c1cc(-c2cccc(NC(=O)c3ccc(/C=C/C(=O)c4ccc(Cl)cc4)cc3)c2)on1
6. COC(=O)c1cc(-c2cccc(NC(=O)c3ccc(/C=C/C(=O)c4cc(OC)c(OC)c(OC)c4)cc3)c2)on1
7. COC(=O)c1cc(-c2cccc(NC(=O)c3ccc(/C=C/C(=O)c4ccc(OC)cc4)cc3)c2)on1
8. CCCOc1ccc(C(=O)/C=C/c2ccc(C(=O)Nc3cccc(-c4cc(C(=O)OC)no4)c3)cc2)cc1

Reply:
> 2.5 µg/mL
> 20 µg/mL
> 80 µg/mL
> 50 µg/mL
> 80 µg/mL
> 50 µg/mL
> 10 µg/mL
> 40 µg/mL

###

system: Mycolicibacterium fortuitum; assay: Antimycobacterial activity against Mycobacterium fortuitum ATCC 6841 assessed as visible growth inhibition incubated for 16 to 18 hrs; format: functional, organism-based; conditions: time 16-18 hrs
The source made the active and inactive calls. The calls are words filed in the database; no cut-off is given here.
VALUE TYPE: Activity

Example results:
1. COC(=O)c1cc(-c2cccc(NC(=O)c3ccc(/C=C/C(=O)c4ccc(CC(C)C)cc4)cc3)c2)on1 = inactive
2. COC(=O)c1cc(-c2cccc(NC(=O)c3ccc(/C=C/C(=O)c4cc(OC)c(OC)c(OC)c4)cc3)c2)on1 = inactive
3. COC(=O)c1cc(-c2cccc(NC(=O)c3ccc(/C=C/C(=O)c4cccc(F)c4)cc3)c2)on1 = inactive
4. COC(=O)c1cc(-c2cccc(NC(=O)c3ccc(/C=C/C(=O)c4ccc(OC)c([N+](=O)[O-])c4)cc3)c2)on1 = inactive

Fill in Activity for each of the 8 molecules listed.
1. COC(=O)c1cc(-c2cccc(NC(=O)c3ccc(/C=C/C(=O)c4cccc(C(F)(F)F)c4)cc3)c2)on1
2. COC(=O)c1cc(-c2cccc(NC(=O)c3ccc(/C=C/C(=O)c4cccc([N+](=O)[O-])c4)cc3)c2)on1
3. COC(=O)c1cc(-c2cccc(NC(=O)c3ccc(/C=C/C(=O)c4ccc(OC)c(OC)c4)cc3)c2)on1
4. COC(=O)c1cc(-c2cccc(NC(=O)c3ccc(/C=C/C(=O)c4cccs4)cc3)c2)on1
5. COC(=O)c1cc(-c2cccc(NC(=O)c3ccc(/C=C/C(=O)c4ccccc4Cl)cc3)c2)on1
6. COC(=O)c1cc(-c2cccc(NC(=O)c3ccc(/C=C/C(=O)c4ccc(N5CCOCC5)cc4)cc3)c2)on1
7. COC(=O)c1cc(-c2cccc(NC(=O)c3ccc(/C=C/C(=O)c4ccc([N+](=O)[O-])cc4)cc3)c2)on1
8. COC(=O)c1cc(-c2cccc(NC(=O)c3ccc(/C=C/C(=O)c4ccccc4C)cc3)c2)on1

Reply:
["inactive", "inactive", "inactive", "inactive", "inactive", "inactive", "inactive", "inactive"]

Fill in Activity for each of the 5 molecules listed.
1. COC(=O)c1cc(-c2cccc(NC(=O)c3ccc(/C=C/C(=O)c4ccc(F)cc4F)cc3)c2)on1
2. COC(=O)c1cc(-c2cccc(NC(=O)c3ccc(/C=C/C(=O)c4ccc5c(c4)OCO5)cc3)c2)on1
3. COC(=O)c1cc(-c2cccc(NC(=O)c3ccc(/C=C/C(=O)c4ccc(Cl)cc4Cl)cc3)c2)on1
4. COC(=O)c1cc(-c2cccc(NC(=O)c3ccc(/C=C/C(=O)c4ccccc4OC)cc3)c2)on1
5. CCOc1ccc(C(=O)/C=C/c2ccc(C(=O)Nc3cccc(-c4cc(C(=O)OC)no4)c3)cc2)cc1

Reply:
1: inactive; 2: inactive; 3: inactive; 4: inactive; 5: inactive
